Molecular target: T1, La-WT (La autoantigen, LARP3) (human, UniProt P05455 1-408)
T1 sequence: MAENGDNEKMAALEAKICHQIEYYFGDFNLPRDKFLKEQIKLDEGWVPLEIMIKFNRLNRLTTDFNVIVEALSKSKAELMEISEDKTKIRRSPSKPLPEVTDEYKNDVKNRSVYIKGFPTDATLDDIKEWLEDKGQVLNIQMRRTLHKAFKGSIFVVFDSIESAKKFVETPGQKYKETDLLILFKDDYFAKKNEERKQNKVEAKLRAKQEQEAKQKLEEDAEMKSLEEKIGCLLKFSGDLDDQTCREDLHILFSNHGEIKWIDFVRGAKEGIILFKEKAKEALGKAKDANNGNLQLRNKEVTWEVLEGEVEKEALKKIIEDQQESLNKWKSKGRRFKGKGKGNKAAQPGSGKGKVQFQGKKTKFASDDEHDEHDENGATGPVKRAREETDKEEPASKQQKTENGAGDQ
Test: EMSA; EMSA: about 20 mM Tris-HCl pH 7.4, 150 mM NaCl, 3 mM MgCl2, 0.5 mM EDTA, IGEPAL, glycerol, 50 nM RNA, RT 10 min (with compounds: 18 mM Tris, 135 mM NaCl, 2.7 mM MgCl2, 0.45 mM EDTA, 0.025% IGEPAL, 2% glycerol, 10% DMSO); FP: 20 mM Tris-HCl pH 7.5, 3 mM MgCl2, 0.5 mM EDTA, 150 mM NaCl, 0.05% IGEPAL, 100 ug/ml BGG, RT 15 min
Details: protein: recombinant; tags: His; mfold predicted structure
reported endpoint: Kd (nM)
Answer with a number only, understood to be in nM.

input: Dear colleague, I am looking for the recorded Kd of the following binder: CCCUUUUCCCACCCCCUAGCGCCGCUGGGCCU (structured_RNA) [TOPf]
output: 147
